System: Mus musculus
Assay: Analgesic activity in ip dosed formalin-induced nociception Albino Swiss CD-1 mouse model assessed as reduction in time spent on licking formalin injected hind paw during inflammatory phase pretreated for 30 mins followed by formalin induction measured after 15 to 30 mins
Type: functional
Details: Swiss CD-1, ip
The reader will find reported ED50 values listed item by item below.
Report only the number, with the unit mg/kg understood.

Sample records with ED50:
*Q* Would you mind telling me what ED50 value was observed for O=C(C1=C(O)c2ccccc2S(=O)(=O)N1CC(=O)N1CCN(c2ncccn2)CC1)c1ccc(Br)cc1 ?
*A* 8.25

*Q* Same for O=C(C1=C(O)c2ccccc2S(=O)(=O)N1CCCN1CCN(c2cccc(C(F)(F)F)c2)CC1)c1ccccc1
*A* 7.14

*Q* Moving on to the next molecule: COc1ccccc1N1CCN(CCCN2C(C(=O)c3ccccc3)=C(O)c3ccccc3S2(=O)=O)CC1
*A* 9.03

*Q* Do the same for COc1ccccc1N1CCN(C(=O)CN2C(C(=O)c3ccccc3)=C(O)c3ccccc3S2(=O)=O)CC1 please
*A* 7.93

*Q* How about this molecule: O=C(C1=C(O)c2ccccc2S(=O)(=O)N1CC(=O)N1CCN(c2ccccc2)CC1)c1ccc(F)cc1
*A* 6.24

Continuing:
*Q* # lookup: ED50 of O=C(C1=C(O)c2ccccc2S(=O)(=O)N1CC(=O)N1CCN(c2ccccc2)CC1)c1ccccc1
*A* 8.85

*Q* Same question for O=C(C1=C(O)c2ccccc2S(=O)(=O)N1CCCN1CCN(c2ccccc2)CC1)c1ccccc1 please.
*A* 6.18

*Q* Now give it for CN1C(C(=O)Nc2ccccn2)=C(O)c2ccccc2S1(=O)=O [PIROXICAM] too.
*A* 18.9

*Q* Try this molecule next: Cc1ccc(C(=O)C2=C(O)c3ccccc3S(=O)(=O)N2CCCN2CCN(c3ccccc3)CC2)cc1
*A* 4.01

*Q* Please answer likewise for Cc1ccc(C(=O)C2=C(O)c3ccccc3S(=O)(=O)N2CC(=O)N2CCN(c3ccccc3)CC2)cc1
*A* 7.22

###

Test system: Mus musculus
Test: Analgesic activity in formalin-induced nociception Albino Swiss CD-1 mouse model assessed as time spent on licking formalin injected hind paw during inflammatory phase at 10 mg/kg, ip pretreated for 30 mins followed by formalin induction measured after 15 to 30 mins (reference value: 138.5 +/- 8.55 s)
Format: functional
# cutoff 60 s applies to Time; >= gives True, < gives False

*Q* // inclusive: Time at least 60 s? input: Cc1ccc(C(=O)C2=C(O)c3ccccc3S(=O)(=O)N2CCCN2CCN(c3ccccc3)CC2)cc1
*A* False

*Q* Then what about the molecule COc1ccccc1N1CCN(C(=O)CN2C(C(=O)c3ccccc3)=C(O)c3ccccc3S2(=O)=O)CC1 ?
*A* True

*Q* Try the molecule Cc1ccc(C(=O)C2=C(O)c3ccccc3S(=O)(=O)N2CC(=O)N2CCN(c3ccccc3)CC2)cc1
*A* False

New cases:
*Q* Could you please find out whether O=C(C1=C(O)c2ccccc2S(=O)(=O)N1CCCN1CCN(c2ccccc2)CC1)c1ccccc1 has Time that meets 60 s or exceeds it?
*A* True

*Q* What do you get for CN1C(C(=O)Nc2ccccn2)=C(O)c2ccccc2S1(=O)=O ?
*A* True

*Q* Same thing, different molecule: O=C(C1=C(O)c2ccccc2S(=O)(=O)N1CC(=O)N1CCN(c2ccccc2)CC1)c1ccc(F)cc1
*A* False

*Q* Okay, and O=C(C1=C(O)c2ccccc2S(=O)(=O)N1CC(=O)N1CCN(c2ccccc2)CC1)c1ccccc1 ?
*A* True

*Q* // same read-out, input: COc1ccccc1N1CCN(CCCN2C(C(=O)c3ccccc3)=C(O)c3ccccc3S2(=O)=O)CC1
*A* True

*Q* Same lookup for O=C(C1=C(O)c2ccccc2S(=O)(=O)N1CC(=O)N1CCN(c2ncccn2)CC1)c1ccc(Br)cc1 , please.
*A* True

###

Test: Acute toxicity in ip dosed Albino Swiss CD-1 mouse measured for 24 hrs
Format: organism-based
Details: in vivo
Recorded LD50 at 24 h values for a group of compounds are listed next.

Here's what some known entries look like.
*Q* Query (compound): O=C(C1=C(O)c2ccccc2S(=O)(=O)N1CC(=O)N1CCN(c2ncccn2)CC1)c1ccc(Br)cc1 ; field requested: LD50 at 24 h
*A* > 2000 mg/kg

*Q* Then what about the compound O=C(C1=C(O)c2ccccc2S(=O)(=O)N1CC(=O)N1CCN(c2ccccc2)CC1)c1ccc(F)cc1 ?
*A* 957 mg/kg

Others:
*Q* Need LD50 at 24 h, item Cc1ccc(C(=O)C2=C(O)c3ccccc3S(=O)(=O)N2CCCN2CCN(c3ccccc3)CC2)cc1
*A* > 2000 mg/kg

*Q* Field entry: O=C(C1=C(O)c2ccccc2S(=O)(=O)N1CCCN1CCN(c2cccc(C(F)(F)F)c2)CC1)c1ccccc1
*A* > 2000 mg/kg

###

The compounds listed here are annotated with their LD50 at 24 h.
Test: Acute toxicity in ip dosed Albino Swiss CD-1 mouse measured for 24 hrs
Assay type: organism-based
Settings: in vivo

*Q* Which LD50 at 24 h reading was recorded for the compound O=C(C1=C(O)c2ccccc2S(=O)(=O)N1CCCN1CCN(c2ccccc2)CC1)c1ccccc1 ?
*A* > 2000 mg/kg

***
*Q* Quick one: LD50 at 24 h of COc1ccccc1N1CCN(CCCN2C(C(=O)c3ccccc3)=C(O)c3ccccc3S2(=O)=O)CC1 ?
*A* > 2000 mg/kg

*Q* Moving on to the next compound: COc1ccccc1N1CCN(C(=O)CN2C(C(=O)c3ccccc3)=C(O)c3ccccc3S2(=O)=O)CC1
*A* > 2000 mg/kg

Origin of the recorded values: ChEMBL document CHEMBL4316618
